The following molecules are listed with their measured IC50 values.
Test system: TNFα
Experiment: TNFα synthesis inhibition in LPS-stimulated human monocytes (ELISA)
Type: cell-based
Details: Monocyte, LPS 1 ng/ml, 16 hours
Measured Property: IC50 (nM)

• COc1ccc2c(Cc3c(Cl)cncc3Cl)nncc2c1OC1CCCC1 = 254
• COc1ccc2c(Cc3c(Cl)cncc3Cl)nncc2c1OC1Cc2ccccc2C1 = 252
• COc1ccc2c(Cc3c(Cl)cncc3Cl)nncc2c1OCCCCCc1ccccc1 = 83.5

---

System: PDE 4
Test: PDE 4 enzyme inhibition test (SPA)
Assay type: biochemical, human
Conditions: at 10^-8 M; enzyme from human PMNs
Measured Property: PDE 4 % inhibition (%)

• FC(F)Oc1ccc2c(Cc3c(Cl)cncc3Cl)nncc2c1OC1CCCC1 = 34
• COc1ccc2c(Cc3c(Cl)cncc3Cl)n[n+]([O-])cc2c1OC1CCCC1 = 25
• COc1ccc2c(Cc3c(Cl)cncc3Cl)nncc2c1OCCCCCc1ccccc1 = 27
• COc1ccc2c(Cc3c(Cl)cncc3Cl)nncc2c1OC1Cc2ccccc2C1 = 33
• CCc1nnc(Cc2c(Cl)cncc2Cl)c2cc(OC3CCCC3)c(OC)cc12 = 33
• COc1ccc2c(Cc3c(Cl)cncc3Cl)nncc2c1OC1CCCC1 = 19

---

The following molecules are listed with their measured IC50 values.
Biological target: PDE 4
Experiment: PDE 4 enzyme inhibition test (SPA)
Format: biochemical, human
Details: enzyme from human PMNs; 9 concentrations, 4-parameter logistic
Measured Property: IC50 (nM)

* COc1ccc2c(Cc3c(Cl)cncc3Cl)n[n+]([O-])cc2c1OC1CCOC1 (stereo not drawn) | 298
* COc1ccc2c(Cc3c(Cl)cncc3Cl)nncc2c1OCCCCCc1ccccc1 | 56.8
* FC(F)Oc1ccc2c(Cc3c(Cl)cncc3Cl)nncc2c1OC1CCCC1 | 38.9
* COc1ccc2c(Cc3c(Cl)cncc3Cl)nncc2c1OC1CCOC1 (stereo not drawn) | 153
* COc1ccc2c(Nc3c(Cl)cncc3Cl)nncc2c1OC1CCCC1 | 58.9
* COc1ccc2c(Cc3c(Cl)c[n+]([O-])cc3Cl)n[n+]([O-])cc2c1OC1CCOC1 (stereo not drawn) | 206
* COc1cc2c(C)nnc(Cc3c(Cl)cncc3Cl)c2cc1OC1CCCC1 | 146
* COc1cc2cnnc(Cc3c(Cl)cncc3Cl)c2cc1OC1CCCC1 | 186
* FC(F)Oc1ccc2c(Cc3c(Cl)cncc3Cl)nncc2c1OC1CCOC1 (stereo not drawn) | 282

---

Molecular target: PDE 5 (Homo sapiens)
Construct: Human platelets were prepared from platelet rich plasma (PRP); from tissue; host or cells: human platelets (platelet rich plasma, L. Sacco Hospital, Milan)
Test: PDE 5 enzyme inhibition test (SPA)
Assay type: biochemical
Settings: at 10^-6 M; enzyme from human platelets
The following compounds are listed with their measured inhibition at 1 µM values.
Measured Property: inhibition at 1 µM (%)

• COc1ccc2c(Cc3c(Cl)cncc3Cl)nncc2c1OC1CCOC1 (stereo not shown) [Compound 13] = 2
• COc1ccc2c(Cc3c(Cl)c[n+]([O-])cc3Cl)n[n+]([O-])cc2c1OC1CCOC1 (stereo not shown) [Compound 19] = 8
• COc1ccc2c(Cc3c(Cl)cncc3Cl)nncc2c1OCCCCCc1ccccc1 [Compound 6] = 20
• COc1ccc2c(Nc3c(Cl)cncc3Cl)nncc2c1OC1CCCC1 [Compound 4] = 19
